For each of the compounds below, state its pIC50.
Tested on: UWB1.289
test_protocol: Cytotoxicity, UWB1.289 cells
Type: cell-based, human
condition: Homo sapiens, UWB1289; UWB1.289; read-out: IC50, mean ± SEM
By convention, pIC50 is the negative base-10 log of a molar concentration.

Fill: pIC50 (UWB1.289) for this compound CC(=O)O[C@H]1C(=O)[C@@]2(C)[C@H]([C@H](OC(=O)c3ccccc3)[C@]3(O)C[C@H](OC(=O)[C@H](O)[C@@H](NC(=O)c4ccccc4)c4ccccc4)C(C)=C1C3(C)C)[C@]1(OC(C)=O)CO[C@@H]1C[C@@H]2O
7.86

System UWB1.289. Read-out pIC50. Item Nc1ccn([C@@H]2O[C@H](CO)[C@@H](O)C2(F)F)c(=O)n1 . Report value.
7.25

----------
Tested on: MCF-7
test_protocol: Cytotoxicity, MCF-7 cells
Assay type: cell-based, human
condition: MCF-7, ER+ PR(+)
endpoint_name: IC50 (µM)
Output spec: scalar in µM, unitless text.

Return the recorded IC50 value; entry: N.N.[Cl][Pt][Cl] [Cisplatin]
12.1

----------
Test system: OVCAR-3
test_protocol: Cytotoxicity, OVCAR-3 cells
Format: cell-based, human
condition: Homo sapiens, read-out: IC50, mean ± SEM
endpoint_name: pIC50
// field semantics: pIC50 = negative decimal log of concentration (mol/L)

Report pIC50 for O=C(Nc1nc(-c2ccc(O)c(O)c2)c(-c2ccccc2)s1)c1ccc(O)c(O)c1
4.69

Output measured pIC50 for this item: Nc1ccn([C@@H]2O[C@H](CO)[C@@H](O)C2(F)F)c(=O)n1
6.93

Report pIC50, nothing else, for this molecule: CC(=O)O[C@H]1C(=O)[C@@]2(C)[C@H]([C@H](OC(=O)c3ccccc3)[C@]3(O)C[C@H](OC(=O)[C@H](O)[C@@H](NC(=O)c4ccccc4)c4ccccc4)C(C)=C1C3(C)C)[C@]1(OC(C)=O)CO[C@@H]1C[C@@H]2O
8.54

----------
System: TOV112D
test_protocol: Cytotoxicity, TOV112D cells
Assay type: cell-based, human
condition: read-out: IC50, mean ± SEM
endpoint_name: pIC50
Here pIC50 is given on a logarithmic scale as minus log10 of the concentration in mol/L.

Note down pIC50 recorded for N.N.[Cl][Pt][Cl] [Cisplatin]
5.88

----------
Test system: HCC1937
test_protocol: Cytotoxicity, HCC1937 cells
Type: cell-based, human
condition: HCC1937, triple negative, BRCA1 mutant; COH29 72 h
endpoint_name: IC50 (µM)
Give the quantity in µM, number only.

Using the record for N.N.[Cl][Pt][Cl] [Cisplatin] , state its measured IC50.
2.46

----------
Tested on: UWB1.289 + BRCA1
test_protocol: Cytotoxicity, UWB1.289+BRCA1 cells
Assay type: cell-based, human
condition: UWB1.289 + BRCA1 (WT); COH29 72 h; read-out: IC50, mean ± SEM
endpoint_name: IC50 (µM)
The figure you give is taken to be in µM; do not add the unit.

Param request: IC50 | system UWB1.289 + BRCA1 | item N.N.[Cl][Pt][Cl] [Cisplatin]
7.4

----------
Tested on: MDA-MB-231
test_protocol: Cytotoxicity, MDA-MB-231 cells
Assay type: cell-based, human
condition: MDA-MB-231, TNBC; read-out: IC50, mean ± SEM
endpoint_name: IC50 (µM)
Unit µM implied. Number only.

Give measured IC50 for N.N.[Cl][Pt][Cl] [Cisplatin] (MDA-MB-231).
3.74
